The origin of these recorded values is patent US8906844B2.

Biological target: T1, soluble human FcRn (shFcRn) (human, UniProt P55899 24-297; P61769 21-119, biotinylated with Sulfo-NHS-LC-Biotin in the ELISA; amine-coupled to a CM5 chip in SPR)
T1 construct: also called biotinylated shFcRn
Assay: competition ELISA vs human IgG
Positions of bridges follow the written chain, without caps; N, C: chain ends. Non-standard residues stand in square brackets, D forms with d. No end group written: not given here. Pen = CC(C)(S)[C@H](N)C(=O)O; Sar = CNCC(=O)O
reported_metric: IC50 (µM)

For orientation, consider the following solved cases.
QRF[Pen]TGHFG[dR]LYPCNGP-NH2 (disulfide 4-14; N-terminus assumed; SMILES CC(C)C[C@@H]1NC(=O)[C@@H](CCCNC(=N)N)NC(=O)CNC(=O)[C@H](Cc2ccccc2)NC(=O)[C@H](Cc2c[nH]cn2)NC(=O)CNC(=O)[C@H]([C@@H](C)O)NC(=O)[C@@H](NC(=O)[C@H](Cc2ccccc2)NC(=O)[C@H](CCCNC(=N)N)NC(=O)[C@@H](N)CCC(N)=O)C(C)(C)SSC[C@@H](C(=O)N[C@@H](CC(N)=O)C(=O)NCC(=O)N2CCC[C@H]2C(N)=O)NC(=O)[C@@H]2CCCN2C(=O)[C@H](Cc2ccc(O)cc2)NC1=O) [Peptide No. 41]; 8.1
QRFVTGHFG[dP]IYPANGP-NH2 (N-terminus assumed; SMILES CC[C@H](C)[C@H](NC(=O)[C@H]1CCCN1C(=O)CNC(=O)[C@H](Cc1ccccc1)NC(=O)[C@H](Cc1c[nH]cn1)NC(=O)CNC(=O)[C@@H](NC(=O)[C@@H](NC(=O)[C@H](Cc1ccccc1)NC(=O)[C@H](CCCNC(=N)N)NC(=O)[C@@H](N)CCC(N)=O)C(C)C)[C@@H](C)O)C(=O)N[C@@H](Cc1ccc(O)cc1)C(=O)N1CCC[C@H]1C(=O)N[C@@H](C)C(=O)N[C@@H](CC(N)=O)C(=O)NCC(=O)N1CCC[C@H]1C(N)=O) [Peptide No. 174]; 94
RF[Pen]TGHFG[Sar]YPCNGP-NH2 (disulfide 3-12; N-terminus assumed; SMILES C[C@@H](O)[C@@H]1NC(=O)[C@@H](NC(=O)[C@H](Cc2ccccc2)NC(=O)[C@@H](N)CCCNC(=N)N)C(C)(C)SSC[C@@H](C(=O)N[C@@H](CC(N)=O)C(=O)NCC(=O)N2CCC[C@H]2C(N)=O)NC(=O)[C@@H]2CCCN2C(=O)[C@H](Cc2ccc(O)cc2)NC(=O)CN(C)C(=O)CNC(=O)[C@H](Cc2ccccc2)NC(=O)[C@H](Cc2c[nH]cn2)NC(=O)CNC1=O, printed RF-Pen-TGHFG-Sar-YPCNGP (no Leu after Sar)) [Peptide No. 147]; 1

A: QRFVTGHFGXWYPINGP (D-Pro10; unbridged; C-terminal amide) [Peptide No. 190]
B: QRFVTGHFGXLYPANGP (D-Pro10; unbridged; C-terminal amide) [Peptide No. 157]
Exam item: Sort A and B by IC50 descending and give the first. Give the label of your selection.
Marked response: B
(B: 195 µM, A: 49 µM)
